tested on: OVCAR-4 ovarian; experiment: NCI tumour cell line growth inhibition, 48 h
Reported TGI values follow for various compounds
Measurement Name: TGI

Compound | Assayed System | Measurement Name | Reported
C#Cc1cccc(NC(=O)c2cccc(NC(=O)CCl)c2)c1 | OVCAR-4 ovarian | TGI | 33.9 µM
O=C(CC1(O)C(=O)Nc2ccccc21)c1ccc(Cl)cc1Cl (centres undefined) | OVCAR-4 ovarian | TGI | > 100 µM
CCOC(=O)C(NC(=O)c1ccccc1)(c1ccc(S(=O)(=O)Nc2onc(C)c2C)cc1)C(F)(F)F (centres undefined) | OVCAR-4 ovarian | TGI | > 100 µM
CC[O-].CC[O-].O=C([CH-]C(=O)c1ccccc1)CCCCCCC(=O)[CH-]C(=O)c1ccccc1.[Ti+4] | OVCAR-4 ovarian | TGI | > 100 µM
O=S1(=O)c2cc(S(=O)(=O)n3ccnc3)ccc2NC2=NCCCN21 | OVCAR-4 ovarian | TGI | > 100 µM
COc1ccccc1NC(=O)C1=C(C)NC(C)=C(C(=O)Nc2ccccc2OC)C1c1ccccc1Cl | OVCAR-4 ovarian | TGI | > 100 µM
O=S1(=O)c2ccccc2N2C(c3ccccc3)=NOC2(c2ccccc2)CC1c1ccc(Br)cc1 (centres undefined) | OVCAR-4 ovarian | TGI | > 100 µM
CN(CCNC(=O)c1nn(-c2ccc(Cl)cc2Cl)c2c1Cc1ccccc1-2)CCNC(=O)c1nn(-c2ccc(Cl)cc2Cl)c2c1Cc1ccccc1-2 | OVCAR-4 ovarian | TGI | > 20 µM
O=c1[nH]nc(CNc2ccc(Cl)cc2Cl)c2ccccc12 | OVCAR-4 ovarian | TGI | 39.8 µM
